Origin of values: the supplement of paper PMC6555819

This section presents sequences with their documented PBM binding z-score values.
- System: THRa homodimer (NR concentration 90 nM)
- method_description: PBM binding z-score (relative to random genomic background probes); higher = stronger binding; sequences stand for … in GC…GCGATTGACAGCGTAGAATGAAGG
Reply briefly: the number, and no unit.

# lookup: PBM binding z-score of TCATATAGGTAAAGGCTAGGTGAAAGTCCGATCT
0.205

# lookup: PBM binding z-score of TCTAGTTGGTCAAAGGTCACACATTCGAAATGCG
2.07

----------
This section presents sequences with their documented PBM binding z-score values.
- Test system: RARa:RXR (NR concentration 270 nM, RXRa partner concentration 90 nM)
- method_description: PBM binding z-score (relative to random genomic background probes); higher = stronger binding; sequences stand for … in GC…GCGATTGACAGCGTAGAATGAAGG
Reply briefly: the number, and no unit.

Example cases with answers are listed next.
sequence_text	PBM binding z-score
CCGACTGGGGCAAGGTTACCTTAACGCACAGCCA	0.858
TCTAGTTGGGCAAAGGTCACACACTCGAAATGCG	6.56
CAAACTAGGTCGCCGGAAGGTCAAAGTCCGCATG	5.67
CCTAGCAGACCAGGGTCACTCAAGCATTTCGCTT	3.3
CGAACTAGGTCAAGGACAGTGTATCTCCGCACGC	2.03

# lookup: PBM binding z-score of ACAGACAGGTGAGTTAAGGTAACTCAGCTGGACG
1.29

# lookup: PBM binding z-score of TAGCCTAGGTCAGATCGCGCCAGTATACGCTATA
0.7

# lookup: PBM binding z-score of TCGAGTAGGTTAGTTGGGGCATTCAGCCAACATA
0.117

# lookup: PBM binding z-score of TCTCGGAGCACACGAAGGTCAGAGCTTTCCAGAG
1.49

# lookup: PBM binding z-score of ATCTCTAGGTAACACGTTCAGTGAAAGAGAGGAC
0.208

# lookup: PBM binding z-score of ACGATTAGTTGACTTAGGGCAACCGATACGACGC
0.392

# lookup: PBM binding z-score of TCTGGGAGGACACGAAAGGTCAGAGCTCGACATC
4.77

# lookup: PBM binding z-score of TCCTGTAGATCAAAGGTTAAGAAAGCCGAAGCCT
2.85

# lookup: PBM binding z-score of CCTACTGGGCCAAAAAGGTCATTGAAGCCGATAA
5.39

# lookup: PBM binding z-score of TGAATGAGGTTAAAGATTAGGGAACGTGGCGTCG
1.98

# lookup: PBM binding z-score of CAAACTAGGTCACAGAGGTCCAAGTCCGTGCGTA
3.05

# lookup: PBM binding z-score of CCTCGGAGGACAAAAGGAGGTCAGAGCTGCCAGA
2.45

# lookup: PBM binding z-score of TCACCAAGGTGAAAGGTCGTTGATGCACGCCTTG
4.87

# lookup: PBM binding z-score of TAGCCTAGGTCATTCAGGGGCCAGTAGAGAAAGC
3.33

----------
- Tested on: RARa homodimer (NR concentration 270 nM)
- method_description: PBM binding z-score (relative to random genomic background probes); higher = stronger binding; sequences stand for … in GC…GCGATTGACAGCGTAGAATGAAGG
test_readout: PBM binding z-score
Reply briefly: the number, and no unit.

sequence_text	test_readout	observed_result
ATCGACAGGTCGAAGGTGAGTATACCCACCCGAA	PBM binding z-score	-0.439
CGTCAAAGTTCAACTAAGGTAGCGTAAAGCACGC	PBM binding z-score	2.16
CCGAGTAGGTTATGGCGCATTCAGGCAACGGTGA	PBM binding z-score	0.249
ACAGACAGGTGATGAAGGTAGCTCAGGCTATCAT	PBM binding z-score	0.11
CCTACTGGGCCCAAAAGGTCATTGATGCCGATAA	PBM binding z-score	1.46

Please turn your attention to the following entry.
Give PBM binding z-score (RARa homodimer (NR concentration 270 nM)) of the following sequence: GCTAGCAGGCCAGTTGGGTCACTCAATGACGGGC
-0.946
